B1: library; numbered along this chain (parent)
chain: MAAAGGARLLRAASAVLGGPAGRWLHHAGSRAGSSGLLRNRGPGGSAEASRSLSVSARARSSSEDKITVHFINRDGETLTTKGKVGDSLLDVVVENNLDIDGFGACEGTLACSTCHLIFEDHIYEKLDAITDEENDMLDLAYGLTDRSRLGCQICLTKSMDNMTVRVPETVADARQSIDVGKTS

variants of: B1; assay: scaled log2 fold change in cell abundance, elesclomol vs control (0 = silent mean, 1 = nonsense mean) (scaled log2 ratio); higher = higher viability under elesclomol (loss of FDX1 cuproptosis function); settings: with HEK293T FDX1 KO; elesclomol 40 nM; glucose 10 mM; 11 days;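 further: variant abundance is its share of total variant reads in each endpoint sample, from next-generation sequencing of the integrated ORF PCR-amplified out of genomic DNA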
Rule: scaled log2 fold change under 0.02 gives Condition not met, otherwise Condition met.

[[record]]
var = "D132H"
assigned_label = "Condition not met"

[[record]]
var = "K84T"
assigned_label = "Condition not met"

[[record]]
var = "R11Q"
assigned_label = "Condition met"

[[record]]
var = "A59C"
assigned_label = "Condition met"

[[record]]
var = "T78Y"
assigned_label = "Condition not met"

[[record]]
var = "R149I"
assigned_label = "Condition met"

[[record]]
var = "N40Y"
assigned_label = "Condition not met"

[[record]]
var = "S30C"
assigned_label = "Condition not met"

[[record]]
var = "R51F"
assigned_label = "Condition met"

[[record]]
var = "S63Q"
assigned_label = "Condition met"

[[record]]
var = "A57M"
assigned_label = "Condition not met"

[[record]]
var = "N73F"
assigned_label = "Condition not met"

[[record]]
var = "N135I"
assigned_label = "Condition met"

[[record]]
var = "G42P"
assigned_label = "Condition not met"

[[record]]
var = "K182R"
assigned_label = "Condition not met"

[[record]]
var = "I178E"
assigned_label = "Condition not met"

[[record]]
var = "L140V"
assigned_label = "Condition met"

[[record]]
var = "K66V"
assigned_label = "Condition not met"

[[record]]
var = "S14M"
assigned_label = "Condition met"

[[record]]
var = "D99L"
assigned_label = "Condition not met"

[[record]]
var = "E95R"
assigned_label = "Condition not met"

[[record]]
var = "N96C"
assigned_label = "Condition not met"

[[record]]
var = "D75M"
assigned_label = "Condition not met"

[[record]]
var = "L110Q"
assigned_label = "Condition not met"

[[record]]
var = "V94W"
assigned_label = "Condition met"

[[record]]
var = "S35I"
assigned_label = "Condition met"

[[record]]
var = "T145M"
assigned_label = "Condition not met"

[[record]]
var = "G76C"
assigned_label = "Condition met"

[[record]]
var = "Q176H"
assigned_label = "Condition met"

[[record]]
var = "A2Q"
assigned_label = "Condition not met"

[[record]]
var = "V55P"
assigned_label = "Condition met"

[[record]]
var = "G181F"
assigned_label = "Condition met"

[[record]]
var = "V16Y"
assigned_label = "Condition met"

[[record]]
var = "S148C"
assigned_label = "Condition met"

[[record]]
var = "S54A"
assigned_label = "Condition not met"

[[record]]
var = "C152Y"
assigned_label = "Condition met"

[[record]]
var = "D132S"
assigned_label = "Condition met"

[[record]]
var = "T68W"
assigned_label = "Condition met"

[[record]]
var = "T109R"
assigned_label = "Condition met"

[[record]]
var = "R23T"
assigned_label = "Condition not met"

[[record]]
var = "V180R"
assigned_label = "Condition not met"

[[record]]
var = "A7F"
assigned_label = "Condition met"

[[record]]
var = "E48Y"
assigned_label = "Condition met"

[[record]]
var = "L79D"
assigned_label = "Condition not met"

[[record]]
var = "A57E"
assigned_label = "Condition not met"

[[record]]
var = "E120L"
assigned_label = "Condition met"

[[record]]
var = "A13M"
assigned_label = "Condition met"

[[record]]
var = "E125A"
assigned_label = "Condition not met"

[[record]]
var = "G36I"
assigned_label = "Condition not met"

[[record]]
var = "A129D"
assigned_label = "Condition met"

[[record]]
var = "G45L"
assigned_label = "Condition not met"

[[record]]
var = "R51C"
assigned_label = "Condition not met"

[[record]]
var = "V16K"
assigned_label = "Condition met"

[[record]]
var = "V180A"
assigned_label = "Condition met"

[[record]]
var = "G29T"
assigned_label = "Condition not met"

[[record]]
var = "T164H"
assigned_label = "Condition not met"

[[record]]
var = "G143Y"
assigned_label = "Condition met"

[[record]]
var = "G29R"
assigned_label = "Condition not met"

[[record]]
var = "V69G"
assigned_label = "Condition met"

[[record]]
var = "G36Y"
assigned_label = "Condition not met"

[[record]]
var = "L10Q"
assigned_label = "Condition met"

[[record]]
var = "P43T"
assigned_label = "Condition not met"

[[record]]
var = "V167G"
assigned_label = "Condition met"

[[record]]
var = "G76L"
assigned_label = "Condition not met"

[[record]]
var = "G22T"
assigned_label = "Condition not met"

[[record]]
var = "C112T"
assigned_label = "Condition met"

[[record]]
var = "L90I"
assigned_label = "Condition met"

[[record]]
var = "S56E"
assigned_label = "Condition met"

[[record]]
var = "L144N"
assigned_label = "Condition not met"

[[record]]
var = "S50C"
assigned_label = "Condition met"

[[record]]
var = "S148K"
assigned_label = "Condition not met"

[[record]]
var = "L17H"
assigned_label = "Condition not met"

[[record]]
var = "I118Y"
assigned_label = "Condition not met"

[[record]]
var = "R51I"
assigned_label = "Condition met"

[[record]]
var = "H116F"
assigned_label = "Condition met"

[[record]]
var = "G151R"
assigned_label = "Condition met"

[[record]]
var = "T68D"
assigned_label = "Condition met"

[[record]]
var = "S30M"
assigned_label = "Condition not met"

[[record]]
var = "A28Q"
assigned_label = "Condition met"

[[record]]
var = "R8S"
assigned_label = "Condition not met"

[[record]]
var = "G86L"
assigned_label = "Condition not met"

[[record]]
var = "A2S"
assigned_label = "Condition met"

[[record]]
var = "A141F"
assigned_label = "Condition met"

[[record]]
var = "Q176S"
assigned_label = "Condition not met"

[[record]]
var = "R74H"
assigned_label = "Condition not met"

[[record]]
var = "A57P"
assigned_label = "Condition not met"

[[record]]
var = "K126L"
assigned_label = "Condition not met"

[[record]]
var = "L150D"
assigned_label = "Condition met"

[[record]]
var = "R149N"
assigned_label = "Condition met"

[[record]]
var = "V85N"
assigned_label = "Condition not met"

